Below is a list of entries, each paired with its recorded koff value.
# Study Target: T1, His-tagged human HtrA1 protease domain (human, UniProt Q92743 161-367)
# T1 construct: His-tagged protease domain; also called huHtrA1-PD-His; huHtrA1-PD
# T1 sequence (Q92743 other isoform, or with tags, fused parts or gaps limits assumed): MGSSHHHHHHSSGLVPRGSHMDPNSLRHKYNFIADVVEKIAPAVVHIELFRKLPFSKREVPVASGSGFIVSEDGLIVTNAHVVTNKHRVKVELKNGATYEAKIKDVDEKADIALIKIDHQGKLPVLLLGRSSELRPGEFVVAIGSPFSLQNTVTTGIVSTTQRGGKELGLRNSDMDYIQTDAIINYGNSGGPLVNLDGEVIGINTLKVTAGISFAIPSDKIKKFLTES
# Assay Comment: BIACORE SPR, Fab analyte, Human HtrA1-PD (N=2)

Binder: EP_EG (Fab, V domains shown, also called h15H6.v2 LC-N94E LC-P95 HC-D55E HC-G56 Fab; copies: 1 + 1) VH: EVQLVQSGAEVKKPGASVKVSCKASGYTFTDSEMHWVRQAPGQGLEWIGGVDPETEGAAYNQKFKGRATITRDTSTSTAYLELSSLRSEDTAVYYCTRGYDYDYALDYWGQGTLVTVSS VL: DIQMTQSPSSLSASVGDRVTITCRASSSVNFIHWYQQKPGKAPKPLISATSNLASGVPSRFSGSGSGTDFTLTISSLQPEDFATYYCQQWSSEPWTFGQGTKVEIK
Unit Tag: s⁻¹
koff: 0.00018
--
Binder: SP_EG (Fab, V domains shown, also called h15H6.v2 LC-N94S LC-P95 HC-D55E HC-G56 Fab; copies: 1 + 1) VH: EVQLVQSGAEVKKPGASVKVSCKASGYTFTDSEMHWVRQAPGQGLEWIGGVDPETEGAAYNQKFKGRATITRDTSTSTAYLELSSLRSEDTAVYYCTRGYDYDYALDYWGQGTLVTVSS VL: DIQMTQSPSSLSASVGDRVTITCRASSSVNFIHWYQQKPGKAPKPLISATSNLASGVPSRFSGSGSGTDFTLTISSLQPEDFATYYCQQWSSSPWTFGQGTKVEIK
Unit Tag: s⁻¹
koff: 0.00029
--
Binder: QP_EG (Fab, V domains shown, also called h15H6.v2 LC-N94Q LC-P95 HC-D55E HC-G56 Fab; copies: 1 + 1) VH: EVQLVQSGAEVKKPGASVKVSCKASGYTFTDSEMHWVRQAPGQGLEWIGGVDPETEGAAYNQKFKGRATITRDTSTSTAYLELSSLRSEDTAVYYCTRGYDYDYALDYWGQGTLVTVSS VL: DIQMTQSPSSLSASVGDRVTITCRASSSVNFIHWYQQKPGKAPKPLISATSNLASGVPSRFSGSGSGTDFTLTISSLQPEDFATYYCQQWSSQPWTFGQGTKVEIK
Unit Tag: s⁻¹
koff: 0.00029
--
Binder: h15H6.v2.APEG Fab (Fab, name in Kabat numbering, V domains shown, also called h15H6.v3; LC-N94A LC-P95 HC-D55E HC-G56) VH: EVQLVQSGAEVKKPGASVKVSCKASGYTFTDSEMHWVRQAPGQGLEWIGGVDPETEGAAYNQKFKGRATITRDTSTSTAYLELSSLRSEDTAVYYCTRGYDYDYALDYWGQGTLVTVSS VL: DIQMTQSPSSLSASVGDRVTITCRASSSVNFIHWYQQKPGKAPKPLISATSNLASGVPSRFSGSGSGTDFTLTISSLQPEDFATYYCQQWSSAPWTFGQGTKVEIK
Unit Tag: s⁻¹
koff: 0.00021
